Tested on: LTB4 production in MC/9 cells
ASSAY_INFO: MC/9 HPLC assay, inhibition of LTB4 production
Format: cell-based
CONDITION_DETAILS: Mus musculus, MC9, Table 2 column 4, no concentration in head (1 μM according to b732), read-out: % Inhibition LTB4
READOUT_NAME: inhibition at 1 µM

# COMPOUND, READOUT_NAME, VALUE_OBSERVED
measured = [
    ("CCC(O)(CCc1ccc(Oc2nc3c(SC)cccc3s2)c(OC)c1)C(F)(F)F (centres unmarked)", "inhibition at 1 µM", "> 90%"),
    ("CC(CCc1ccc(Oc2nc3ccccc3s2)cc1)N1CCCC1C(=O)O (centres unmarked)", "inhibition at 1 µM", "70 to 90%"),
    ("CCC(O)(CCc1ccc(Oc2nc3ccccc3s2)c(OC2CCCC2)c1)C(F)(F)F (centres unmarked)", "inhibition at 1 µM", "< 10%"),
    ("CCC(O)(CCc1ccc(Oc2nc3ccc(OC)cc3s2)c(OC)c1)C(F)(F)F (centres unmarked)", "inhibition at 1 µM", "70 to 90%"),
    ("CCC(C)(O)CCc1ccc(Oc2nc3ccccc3o2)c(OC)c1 (centres unmarked)", "inhibition at 1 µM", "< 10%"),
    ("CCC(=O)CCc1ccc(Oc2nc3ccccc3s2)c(Cl)c1", "inhibition at 1 µM", "50 to 70%"),
    ("CCC(O)(CCc1ccc(Oc2nc3ccccc3s2)c(C(F)(F)F)c1)C(F)(F)F (centres unmarked)", "inhibition at 1 µM", "10 to 30%"),
    ("COc1cc(C(O)C(F)(F)F)ccc1Oc1nc2ccccc2s1 (centres unmarked)", "inhibition at 1 µM", "10 to 30%"),
    ("COc1cc(CCC(C)(O)C(F)(F)F)ccc1Oc1nc2c(SC)cccc2s1 (centres unmarked)", "inhibition at 1 µM", "> 90%"),
    ("CC(O)(CCc1ccc(Oc2nc3ccccc3s2)cc1)c1ccccc1 (centres unmarked)", "inhibition at 1 µM", "> 90%"),
    ("CCC(O)(CCc1ccc(Oc2nc3ccccc3s2)c(OC)c1)C(F)(F)F (centres unmarked)", "inhibition at 1 µM", "50 to 70%"),
    ("CCOc1cc(CCC(O)(c2ccccc2)C(F)(F)F)ccc1Oc1nc2ccccc2s1 (centres unmarked)", "inhibition at 1 µM", "10 to 30%"),
    ("COc1cc(CCC(C)=O)ccc1Oc1nc2ccccc2s1", "inhibition at 1 µM", "< 10%"),
    ("COc1cc(CCC(O)c2ccccc2)ccc1Oc1nc2ccccc2s1 (centres unmarked)", "inhibition at 1 µM", "> 90%"),
    ("CCC(O)CCc1ccc(Oc2nc3c(SC)cccc3s2)c(OC)c1 (centres unmarked)", "inhibition at 1 µM", "> 90%"),
    ("CCC(O)(CCc1ccc(Oc2nc3ccccc3s2)c(OC(C)C)c1)C(F)(F)F (centres unmarked)", "inhibition at 1 µM", "< 10%"),
    ("CCC(CCc1ccc(Oc2nc3ccccc3s2)cc1)N1CCCC1 (centres unmarked)", "inhibition at 1 µM", "> 90%"),
    ("CCC(O)(CCc1ccc(Oc2nc3ccccc3s2)cc1)C(F)(F)F (centres unmarked)", "inhibition at 1 µM", "50 to 70%"),
    ("CCC(O)(CCc1ccc(Oc2nc3ccccc3s2)c(OCC2CC2)c1)C(F)(F)F (centres unmarked)", "inhibition at 1 µM", "70 to 90%"),
    ("COc1cc(CCC(C)(O)c2ccccc2)ccc1Oc1nc2ccccc2s1 (centres unmarked)", "inhibition at 1 µM", "50 to 70%"),
    ("CCC(O)(CCc1ccc(Oc2nc3ccccc3s2)c(F)c1)C(F)(F)F (centres unmarked)", "inhibition at 1 µM", "50 to 70%"),
    ("COc1cc(CCC(C)(O)c2ccccc2)ccc1Oc1nc2ccccc2o1 (centres unmarked)", "inhibition at 1 µM", "< 10%"),
    ("CCC(=O)CCc1ccc(Oc2nc3ccccc3s2)c(OC)c1", "inhibition at 1 µM", "< 10%"),
    ("CCC(=O)CCc1ccc(Oc2nc3ccccc3o2)c(OC)c1", "inhibition at 1 µM", "> 90%"),
    ("CC(O)(CCc1ccc(OCc2ccc3ccccc3n2)cc1)C(F)(F)F (centres unmarked)", "inhibition at 1 µM", "> 90%"),
    ("COc1cc(CCC(c2ccccc2)N2CCCC2)ccc1Oc1nc2ccccc2s1 (centres unmarked)", "inhibition at 1 µM", "10 to 30%"),
]
